Record form. Attribute: ΔTm at 12.5 µM. Fill in for each entry.
# target_of_assay: MPSK1 (Homo sapiens, UniProt O75716)
# Construct: gene STK16; catalytic domain-containing construct
# Sequence (O75716 whole entry, the tested form may be a part): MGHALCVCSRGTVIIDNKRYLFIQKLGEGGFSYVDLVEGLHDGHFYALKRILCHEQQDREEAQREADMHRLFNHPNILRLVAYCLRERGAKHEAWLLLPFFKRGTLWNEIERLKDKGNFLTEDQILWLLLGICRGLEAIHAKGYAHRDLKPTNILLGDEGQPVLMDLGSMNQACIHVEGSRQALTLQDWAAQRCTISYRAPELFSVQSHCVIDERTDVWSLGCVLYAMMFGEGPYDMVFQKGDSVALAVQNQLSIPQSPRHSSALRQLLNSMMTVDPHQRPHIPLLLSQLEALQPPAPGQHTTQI
# protocol_description: biochemical
# Parameters: Thermal shift assay (DSF, SYPRO Orange), 2 uM kinase domain, mean delta Tm of triplicates versus DMSO
# condition_description: read-out: MPSK1
Record the value in °C, omitting the unit from your answer.

Just so you know, measured ΔTm at 12.5 µM for O=C1NC(=O)[C@@H](c2cn3c4c(cccc24)CCC3)[C@@H]1c1c[nH]c2ccccc12 [Tivantinib] came out at 0.87

Just so you know, measured ΔTm at 12.5 µM for Cn1cnc2c(F)c(Nc3ccc(Br)cc3F)c(C(=O)NOCCO)cc21 [MEK-162] came out at 0.6

Just so you know, measured ΔTm at 12.5 µM for COc1cc(OC)c(/C=C/S(=O)(=O)Cc2ccc(OC)c(NCC(=O)O)c2)c(OC)c1 [Rigosertib] came out at 0.583

Just so you know, measured ΔTm at 12.5 µM for COc1cc(O)c2c(c1)/C=C/C[C@H](O)[C@H](O)C(=O)/C=C\C[C@H](C)OC2=O [(5Z)-7-oxozeaenol] came out at 1.09

Just so you know, measured ΔTm at 12.5 µM for COc1cc(Nc2c(C#N)cnc3cc(OCCCN4CCN(C)CC4)c(OC)cc23)c(Cl)cc1Cl [Bosutinib] came out at 1.25

Just so you know, measured ΔTm at 12.5 µM for CC(C)(C)Cn1c(N)nc2ccc(-c3[nH]c(C(C)(C)C)nc3-c3ccc(F)cc3)nc21 [Ralimetinib] came out at 1.32

Just so you know, measured ΔTm at 12.5 µM for Cn1cc(-c2[nH]c3cc(NC(=O)[C@H](N)C4CCCCC4)cc4c3c2C=NNC4=O)cn1 [PF-00477736] came out at 6.45

Just so you know, measured ΔTm at 12.5 µM for CC(C)n1nc(-c2ccc3oc(N)nc3c2)c2c(N)ncnc21 [INK128] came out at 1.64

Just so you know, measured ΔTm at 12.5 µM for CN(C)C/C=C/C(=O)Nc1cc2c(Nc3ccc(F)c(Cl)c3)ncnc2cc1O[C@H]1CCOC1 [Afatinib] came out at 0.897

Just so you know, measured ΔTm at 12.5 µM for COc1cc(N2CCC(N3CCN(C)CC3)CC2)ccc1Nc1ncc(Cl)c(Nc2ccccc2P(C)(C)=O)n1 [AP26113] came out at 2.75

Just so you know, measured ΔTm at 12.5 µM for Cc1cc(Nc2nc(N[C@@H](C)c3ncc(F)cn3)ncc2Cl)[nH]n1 [AZD1480] came out at 5.04

Just so you know, measured ΔTm at 12.5 µM for CN1CCN(CCOc2cc(OC3CCOCC3)c3c(Nc4c(Cl)ccc5c4OCO5)ncnc3c2)CC1 [Saracatinib] came out at 0.66

Just so you know, measured ΔTm at 12.5 µM for N#CC1(c2ccc(NC(=O)c3cccnc3NCc3ccncc3)cc2)CCCC1 [Apatinib] came out at 0.55

Just so you know, measured ΔTm at 12.5 µM for CC[C@H](CO)Nc1nc(NCc2ccccc2)c2ncn(C(C)C)c2n1 [Seliciclib] came out at 2.4

Just so you know, measured ΔTm at 12.5 µM for S=C(NCc1ccc2c(c1)OCO2)N1CCN(c2ncnc3c2oc2ccccc23)CC1 [Amuvatinib] came out at 0.233

Just so you know, measured ΔTm at 12.5 µM for CCc1cnn2c(NCc3ccc[n+]([O-])c3)cc(N3CCCC[C@H]3CCO)nc12 [Dinaciclib] came out at 1

Just so you know, measured ΔTm at 12.5 µM for COc1ccc(-c2ccc3c(N4CCOC[C@@H]4C)nc(N4CCOC[C@@H]4C)nc3n2)cc1CO [AZD8055] came out at 0.947

Just so you know, measured ΔTm at 12.5 µM for Cc1cc(C(=O)NOCCO)c(Nc2ccc(I)cc2F)n(C)c1=O [AZD8330] came out at 0.463

Just so you know, measured ΔTm at 12.5 µM for Cc1ccc([N+](=O)[O-])cc1S(=O)(=O)N(C)/N=C/c1cnc2ccc(Br)cn12 [PIK-75] came out at 9.97

Just so you know, measured ΔTm at 12.5 µM for COc1cc(OC2CCN(C)CC2)ccc1Nc1ncc2c(n1)n(C1CCCC1)c(=O)n2C [AZ3146] came out at 4.12

Just so you know, measured ΔTm at 12.5 µM for COc1cc2/c(=N/c3ccc(Br)cc3F)nc[nH]c2cc1OCC1CCN(C)CC1 [Vandetanib] came out at 1.1

Just so you know, measured ΔTm at 12.5 µM for Cn1cc(C2=C(c3cn(C4CCN(Cc5ccccn5)CC4)c4ccccc34)C(=O)NC2=O)c2ccccc21 [Enzastaurin] came out at 1.94

Just so you know, measured ΔTm at 12.5 µM for CC(C)Oc1cc(Nc2nc(N[C@@H](C)c3ccc(F)cn3)ncc2Cl)n[nH]1 [AZ23] came out at 3.4

Just so you know, measured ΔTm at 12.5 µM for CN1CCN(c2nc(C3=C(c4c[nH]c5ccccc45)C(=O)NC3=O)c3ccccc3n2)CC1 [Sotrastaurin] came out at 1.8

Just so you know, measured ΔTm at 12.5 µM for COc1cc(F)c(F)c(Nc2ccc(I)cc2F)c1NS(=O)(=O)C1(C[C@H](O)CO)CC1 [Refametinib] came out at 0.663

Just so you know, measured ΔTm at 12.5 µM for NC(=O)Nc1cc(-c2cccc(F)c2)sc1C(=O)N[C@H]1CCCNC1 [AZD7762] came out at 3.46

Just so you know, measured ΔTm at 12.5 µM for O=C(Nc1cccc(Nc2ncc(Br)c(NCCc3cnc[nH]3)n2)c1)N1CCCC1 [BX-912] came out at 8.25

Just so you know, measured ΔTm at 12.5 µM for Cn1c(Nc2ccc(C(F)(F)F)cc2)nc2cc(Oc3ccnc(-c4ncc(C(F)(F)F)[nH]4)c3)ccc21 [RAF265] came out at 1.67

Just so you know, measured ΔTm at 12.5 µM for COc1cc2c(N3CCN(C(=O)Nc4ccc(OC(C)C)cc4)CC3)ncnc2cc1OCCCN1CCCCC1 [Tandutinib] came out at 1.21

Just so you know, measured ΔTm at 12.5 µM for CN1CCC(COc2cnc(-c3cccc(Cn4nc(-c5cccc(C#N)c5)ccc4=O)c3)nc2)CC1 [EMD1214063] came out at 0.74

Just so you know, measured ΔTm at 12.5 µM for COc1cc2nccc(Oc3ccc(NC(=O)NC4CC4)c(Cl)c3)c2cc1C(N)=O [Lenvatinib] came out at 1.5

Just so you know, measured ΔTm at 12.5 µM for Cc1ccc(Nc2nccc(N(C)c3ccc4c(C)n(C)nc4c3)n2)cc1S(N)(=O)=O [Pazopanib] came out at 7.31

Just so you know, measured ΔTm at 12.5 µM for CC(C)NC[C@@H](C(=O)N1CCN(c2ncnc3c2[C@H](C)C[C@H]3O)CC1)c1ccc(Cl)cc1 [Ipatasertib] came out at 0.84
